- SYSTEM_TESTED: Cytochrome P450 2C9 (Homo sapiens)
- Sequence (P11712 whole entry): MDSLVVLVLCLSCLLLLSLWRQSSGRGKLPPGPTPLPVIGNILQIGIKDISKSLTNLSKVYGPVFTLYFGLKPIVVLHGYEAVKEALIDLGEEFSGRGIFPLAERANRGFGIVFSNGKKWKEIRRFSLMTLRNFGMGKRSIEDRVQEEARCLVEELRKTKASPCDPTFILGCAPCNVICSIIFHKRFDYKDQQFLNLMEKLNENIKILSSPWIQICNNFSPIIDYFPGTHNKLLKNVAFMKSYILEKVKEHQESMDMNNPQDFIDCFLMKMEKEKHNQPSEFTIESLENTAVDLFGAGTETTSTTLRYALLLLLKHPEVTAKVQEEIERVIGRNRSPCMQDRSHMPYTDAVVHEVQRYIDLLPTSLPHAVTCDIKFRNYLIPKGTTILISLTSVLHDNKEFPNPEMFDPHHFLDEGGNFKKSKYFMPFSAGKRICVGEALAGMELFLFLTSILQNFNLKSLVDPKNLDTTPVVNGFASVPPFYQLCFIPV

>  <COMPOUND_SMILES>
O=C(NCc1ncc(C(F)(F)F)cc1Cl)c1ccc2c(c1)C1(CCS(=O)(=O)CC1)[C@H](C1CC1)N2S(=O)(=O)c1ccc(F)cc1

>  <IC50>
> 10 µM

$$$$

====

- SYSTEM_TESTED: Gonadotropin-releasing hormone receptor (Homo sapiens, UniProt P30968)
- PROTOCOL_DESCRIPTION: Antagonist activity at human GnRH receptor expressed in CHO-K1 cells assessed as inhibition of LHRH-induced response preincubated for 20 mins followed by LHRH addition and measured after 60 mins by TR-FRET assay
- Type: cell-based
// IC50 lookup, one value per entry
MEASURED_PARAMETER: IC50 (nM)

>  <MOLECULE>
CC(=O)N1CCC2(CC1)c1cc(C(=O)NCc3ccccc3Cl)ccc1N(S(=O)(=O)c1ccc(F)cc1)C2CCO (racemic)

>  <UNIT_TEXT>
nM

>  <REPORTED_MEASUREMENT>
584

$$$$
>  <MOLECULE>
O=C(NCc1ccc(C(F)(F)F)cn1)c1ccc2c(c1)C1(CCS(=O)(=O)CC1)C(C1CC1)N2S(=O)(=O)c1ccc(F)cc1 (racemic)

>  <UNIT_TEXT>
nM

>  <REPORTED_MEASUREMENT>
159

$$$$
>  <MOLECULE>
CC(=O)N1CCC2(CC1)c1cc(C(=O)NCc3ccccc3Cl)ccc1N(S(=O)(=O)c1cccnc1)C2C (racemic)

>  <UNIT_TEXT>
nM

>  <REPORTED_MEASUREMENT>
139

$$$$
>  <MOLECULE>
O=C(Nc1ccc2c(c1)C1(CCSCC1)C(C1CC1)N2S(=O)(=O)c1ccc(F)cc1)c1cccnc1 (racemic)

>  <UNIT_TEXT>
nM

>  <REPORTED_MEASUREMENT>
48

$$$$
>  <MOLECULE>
CC(=O)N1CCC2(CC1)c1cc(NC(=O)c3cccnc3)ccc1N(S(=O)(=O)c1ccc(F)cc1)C2C1CC1 (racemic)

>  <UNIT_TEXT>
nM

>  <REPORTED_MEASUREMENT>
34

$$$$
>  <MOLECULE>
O=C(NCc1ncccc1Cl)c1ccc2c(c1)C1(CCS(=O)(=O)CC1)C(C1CC1)N2S(=O)(=O)c1ccc(F)cc1 (stereo in doubt)

>  <UNIT_TEXT>
nM

>  <REPORTED_MEASUREMENT>
60

$$$$
>  <MOLECULE>
O=C(Nc1ccc2c(c1)C1(CCC(O)CC1)C(C1CC1)N2S(=O)(=O)c1ccc(F)cc1)c1cccnc1 (configuration not stated)

>  <UNIT_TEXT>
nM

>  <REPORTED_MEASUREMENT>
26

$$$$

====

- PROTOCOL_DESCRIPTION: Oral bioavailability in Wistar rat at 2 mg/kg by LC-MS/MS analysis
- Assay type: ADME, organism-based
- MEASUREMENT_PARAMETERS: in vivo

>  <MOLECULE>
O=C(NCc1ncccc1Cl)c1ccc2c(c1)C1(CCS(=O)(=O)CC1)C(C1CC1)N2S(=O)(=O)c1ccc(F)cc1 (stereo in doubt)

>  <MODIFIER_SIGN>
=

>  <bioavailability [%]>
27

$$$$
>  <MOLECULE>
COc1ccc(S(=O)(=O)N2c3ccc(C(=O)NCc4ccccc4Cl)cc3C3(CCN(C(C)=O)CC3)C2C)cc1 (stereo in doubt; form 3)

>  <MODIFIER_SIGN>
=

>  <bioavailability [%]>
1.3

$$$$
>  <MOLECULE>
O=C(NCc1ncc(C(F)(F)F)cc1Cl)c1ccc2c(c1)C1(CCS(=O)(=O)CC1)[C@H](C1CC1)N2S(=O)(=O)c1ccc(F)cc1 [BAY-784]

>  <MODIFIER_SIGN>
=

>  <bioavailability [%]>
48

$$$$
>  <MOLECULE>
CC1N(S(=O)(=O)c2ccc(F)cc2)c2ccc(C(=O)NCc3ccccc3Cl)cc2C12CCNCC2 (stereo in doubt; 3a)

>  <MODIFIER_SIGN>
<

>  <bioavailability [%]>
2

$$$$
>  <MOLECULE>
CC(=O)N1CCC2(CC1)c1cc(C(=O)NCc3ncccc3Cl)ccc1N(S(=O)(=O)c1ccc(F)cc1)C2C (single isomer, unassigned)

>  <MODIFIER_SIGN>
=

>  <bioavailability [%]>
18

$$$$

====

- SYSTEM_TESTED: Gonadotropin-releasing hormone receptor (Homo sapiens, UniProt P30968)
- Sequence (P30968 whole entry): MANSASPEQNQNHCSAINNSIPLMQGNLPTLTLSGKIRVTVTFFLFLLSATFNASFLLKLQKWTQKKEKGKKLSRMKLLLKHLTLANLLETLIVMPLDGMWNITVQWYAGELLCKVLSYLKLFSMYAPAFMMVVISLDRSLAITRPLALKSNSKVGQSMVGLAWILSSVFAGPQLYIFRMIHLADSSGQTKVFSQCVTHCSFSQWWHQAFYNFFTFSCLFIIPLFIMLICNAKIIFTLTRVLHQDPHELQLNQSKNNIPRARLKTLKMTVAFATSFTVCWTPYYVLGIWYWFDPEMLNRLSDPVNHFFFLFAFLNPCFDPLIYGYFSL
- PROTOCOL_DESCRIPTION: Antagonist activity at human GnRH receptor expressed in CHO-K1 cells assessed as inhibition of LHRH-induced response preincubated for 20 mins followed by LHRH addition and measured after 60 mins by TR-FRET assay
- Assay type: cell-based
# IC50 per record follows
MEASURED_PARAMETER: IC50 (nM)

>  <COMPOUND>
CC(=O)N1CCC2(CC1)c1cc(NC(=O)c3cccc(F)c3)ccc1N(S(=O)(=O)c1ccc(F)cc1)C2C1CC1 (racemic)

>  <SYSTEM_TESTED>
Gonadotropin-releasing hormone receptor (Homo sapiens, UniProt P30968)

>  <UNIT_TEXT>
nM

>  <REPORTED_MEASUREMENT>
10

$$$$
>  <COMPOUND>
N=S1(=O)CCC2(CC1)c1cc(NC(=O)c3cccnc3)ccc1N(S(=O)(=O)c1ccc(F)cc1)C2C1CC1 (stereo in doubt; form 1)

>  <SYSTEM_TESTED>
Gonadotropin-releasing hormone receptor (Homo sapiens, UniProt P30968)

>  <UNIT_TEXT>
nM

>  <REPORTED_MEASUREMENT>
32

$$$$
>  <COMPOUND>
O=C(Nc1ccc2c(c1)C1(CCC(O)(C(F)(F)F)CC1)C(C1CC1)N2S(=O)(=O)c1ccc(F)cc1)c1cccnc1 (stereo not drawn)

>  <SYSTEM_TESTED>
Gonadotropin-releasing hormone receptor (Homo sapiens, UniProt P30968)

>  <UNIT_TEXT>
nM

>  <REPORTED_MEASUREMENT>
78

$$$$

====

- SYSTEM_TESTED: Gonadotropin-releasing hormone receptor (Homo sapiens, UniProt P30968)
- Sequence (P30968 whole entry): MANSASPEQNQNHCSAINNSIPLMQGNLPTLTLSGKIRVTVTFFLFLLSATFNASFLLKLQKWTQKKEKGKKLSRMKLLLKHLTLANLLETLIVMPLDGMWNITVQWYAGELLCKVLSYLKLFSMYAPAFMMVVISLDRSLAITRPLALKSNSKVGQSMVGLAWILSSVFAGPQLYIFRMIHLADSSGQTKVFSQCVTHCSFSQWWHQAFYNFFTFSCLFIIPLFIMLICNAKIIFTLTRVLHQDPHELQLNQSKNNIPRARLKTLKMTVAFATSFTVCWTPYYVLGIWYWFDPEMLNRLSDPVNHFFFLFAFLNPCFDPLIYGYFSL
- PROTOCOL_DESCRIPTION: Antagonist activity at human GnRH receptor expressed in CHO-K1 cells assessed as inhibition of LHRH-induced response preincubated for 20 mins followed by LHRH addition and measured after 60 mins by TR-FRET assay
- Assay type: cell-based
Note: every record was labeled by where its IC50 sits among low range: < 40 nM; mid range: ≥ 40 nM and < 90 nM; high range: ≥ 90 nM

>  <MOLECULE>
CC(=O)N1CCC2(CC1)c1cc(C(=O)NCc3ccccc3Cl)ccc1N(C(=O)c1ccc(F)cc1)C2C (racemic)

>  <CATEGORY>
high range

$$$$
>  <MOLECULE>
CC(=O)N1CCC2(CC1)c1cc(C(=O)NCc3ccccc3Cl)ccc1N(S(=O)(=O)c1ccccc1)C2C (racemic)

>  <CATEGORY>
mid range

$$$$
>  <MOLECULE>
CC(=O)N1CCC2(CC1)c1cc(C(=O)NCc3ccccc3Cl)ccc1N(S(=O)(=O)c1ccc(F)cc1)C2C (stereo in doubt; form 2)

>  <CATEGORY>
low range

$$$$
>  <MOLECULE>
CC(=O)N1CCC2(CC1)c1cc(C(=O)NC3(c4ccc(Cl)cc4)CC3)ccc1N(S(=O)(=O)c1ccc(F)cc1)C2C1CC1 (racemic)

>  <CATEGORY>
mid range

$$$$
>  <MOLECULE>
CC(=O)N1CCC2(CC1)c1cc(C(=O)NCc3ccc(F)cc3Cl)ccc1N(S(=O)(=O)c1ccc(F)cc1)C2C1CC1 (racemic)

>  <CATEGORY>
low range

$$$$
>  <MOLECULE>
O=C(NCc1ncc(C(F)(F)F)cc1F)c1ccc2c(c1)C1(CCS(=O)(=O)CC1)C(C1CC1)N2S(=O)(=O)c1ccc(F)cc1 (racemic)

>  <CATEGORY>
mid range

$$$$
>  <MOLECULE>
CC(=O)N1CCC2(CC1)c1cc(C(=O)NCc3ccccc3Cl)ccc1N(Cc1ccc(F)cc1)C2C (racemic)

>  <CATEGORY>
high range

$$$$
>  <MOLECULE>
C=CCC1N(S(=O)(=O)c2ccc(F)cc2)c2ccc(C(=O)NCc3ccccc3Cl)cc2C12CCN(C(C)=O)CC2 (racemic)

>  <CATEGORY>
low range

$$$$
>  <MOLECULE>
O=C(NCc1ncc(C(F)(F)F)cc1Cl)c1ccc2c(c1)C1(CCS(=O)(=O)CC1)C(C1CC1)N2S(=O)(=O)c1ccc(F)cc1 (racemic)

>  <CATEGORY>
low range

$$$$
>  <MOLECULE>
CC(=O)N1CCC2(CC1)c1cc(C(=O)NCc3ccccc3Cl)ccc1N(S(=O)(=O)c1ccc(F)cc1)C2C (stereo in doubt; form 1)

>  <CATEGORY>
high range

$$$$
>  <MOLECULE>
CC1N(S(=O)(=O)c2ccccc2)c2ccc(C(=O)NCc3ccccc3Cl)cc2C1(C)C (racemic)

>  <CATEGORY>
high range

$$$$
>  <MOLECULE>
CC(=O)N1CCC2(CC1)c1cc(C(=O)NCc3ccccc3Cl)ccc1N(S(=O)(=O)c1ccc(F)cc1)C2C (racemic)

>  <CATEGORY>
mid range

$$$$
>  <MOLECULE>
CC1N(S(=O)(=O)c2ccc(F)cc2)c2ccc(C(=O)NCc3ccccc3Cl)cc2C12CCNCC2 (stereo in doubt)

>  <CATEGORY>
high range

$$$$
>  <MOLECULE>
COc1ccc(S(=O)(=O)N2c3ccc(C(=O)NCc4ccccc4Cl)cc3C(C)(C)C2C)cc1 (racemic)

>  <CATEGORY>
high range

$$$$
>  <MOLECULE>
CC(=O)N1CCC2(CC1)c1cc(C(=O)NCc3ccccc3)ccc1N(S(=O)(=O)c1ccc(F)cc1)C2C1CC1 (racemic)

>  <CATEGORY>
high range

$$$$
>  <MOLECULE>
O=C(Nc1ccc2c(c1)C1(CCS(=O)(=O)CC1)C(C1CC1)N2S(=O)(=O)c1ccc(F)cc1)c1cccnc1 (stereo not given)

>  <CATEGORY>
low range

$$$$
>  <MOLECULE>
O=C(NCc1ncc(F)cc1Cl)c1ccc2c(c1)C1(CCS(=O)(=O)CC1)C(C1CC1)N2S(=O)(=O)c1ccc(F)cc1 (racemic)

>  <CATEGORY>
mid range

$$$$
>  <MOLECULE>
O=C(NCc1ncccc1Cl)c1ccc2c(c1)C1(CCS(=O)(=O)CC1)C(C1CC1)N2S(=O)(=O)c1ccc(F)cc1 (stereo in doubt; 4a)

>  <CATEGORY>
mid range

$$$$
>  <MOLECULE>
N=S1(=O)CCC2(CC1)c1cc(NC(=O)c3cccnc3)ccc1N(S(=O)(=O)c1ccc(F)cc1)C2C1CC1 (stereo in doubt; form 2)

>  <CATEGORY>
low range

$$$$

Origin of measurements: ChEMBL document CHEMBL4673248
